Hi there, I'd appreciate the recorded IC50 for every entry that follows.
# STUDY_SYSTEM: APE1 (Homo sapiens)
# Construct: made in house
# Sequence (P27695 whole entry): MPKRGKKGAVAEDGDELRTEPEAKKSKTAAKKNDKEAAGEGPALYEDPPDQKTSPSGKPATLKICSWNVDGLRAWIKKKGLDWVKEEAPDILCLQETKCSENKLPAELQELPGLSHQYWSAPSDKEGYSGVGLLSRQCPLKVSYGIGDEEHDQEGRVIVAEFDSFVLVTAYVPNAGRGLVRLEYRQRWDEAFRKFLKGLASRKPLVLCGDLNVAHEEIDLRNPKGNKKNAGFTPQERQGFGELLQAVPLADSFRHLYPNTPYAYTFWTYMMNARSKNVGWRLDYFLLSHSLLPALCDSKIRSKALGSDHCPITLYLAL
# TEST_METHOD_NOTES: Fluorogenic kinetic qHTS APE1 incision assay (primary screen and retest of cherrypicked samples);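 also: purified APE1 cleaving a fluorophore/dark-quencher labelled 17-mer duplex DNA bearing a tetrahydrofuran AP site, fluorescence rise followed kinetically over the first 2 min, inhibition normalized to controls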
# Format: biochemical
# STUDY_CONDITIONS: initial quantitative high-throughput screen; read-out: APE1 qHTS IC50
Record the value in µM, omitting the unit from your answer.

Give the measured IC50 for CCCSC1=N/C(=C\C=C\c2ccco2)C(=O)S1 4

Give the measured IC50 for CC(=O)OCC1=C(C(=O)[O-])N2C(=O)C(NC(=O)CCCC(N)C(=O)O)C2SC1.[Na+] (centres unmarked) 22.4

Give the measured IC50 for N#C/C(=C/c1cccn1-c1cccc(C(=O)O)c1)c1ccc(Cl)cc1 11.2

Give the measured IC50 for Cc1coc2c(C)c3oc(=O)c(CCC(=O)N[C@@H](C)C(=O)N[C@@H](Cc4ccccc4)C(=O)O)c(C)c3cc12 13.4

Give the measured IC50 for N#Cc1ccccc1CN1C(=O)S/C(=C/c2cccn2-c2cccc(C(=O)O)c2)C1=O 19.9

Give the measured IC50 for COc1ccc(Cl)cc1NC(=O)CCS(=O)(=O)c1ccc(Br)cc1 11.9

Give the measured IC50 for Cc1ccc(C)c(NC(=O)CN(C)C(=O)c2cccc(-n3cccc3)c2)c1 3

Give the measured IC50 for CCN(CC)C(=O)CC(c1cc(OC)c(OC)c(OC)c1)c1c(OC)cc(OC)c2c(-c3ccccc3)cc(=O)oc12 (centres unmarked) 22.4

* * *

# STUDY_SYSTEM: double-stranded 17-mer DNA fragment
# TEST_METHOD_NOTES: ThO (Thiazole Orange) DNA displacement assay
# Assay type: binding
# STUDY_CONDITIONS: read-out: ThO-DNA binding IC50
RECORDED_ENDPOINT: IC50

Give the measured IC50 for Cn1cnnc1SCC(=O)Nc1nc(-c2ccccc2)cs1 > 57 µM

Give the measured IC50 for COc1cc2c(ccc3cc(OC)c(OC)c(O)c32)cc1O 11.2 µM

Give the measured IC50 for Cc1ccc(NC(=O)CN2C(=O)N/C(=C\c3cccn3-c3cccc(C(=O)O)c3)C2=O)cc1 > 57 µM

Give the measured IC50 for CCCN(C(=O)c1cccc(-n2cccc2)c1)c1c(N)n(Cc2ccccc2)c(=O)[nH]c1=O > 57 µM

Give the measured IC50 for O=C1CC(=O)N(Cc2ccco2)C(=S)N1 > 57 µM

* * *

# STUDY_SYSTEM: E. coli Endo IV (Escherichia coli, UniProt P0A6C1)
# Construct: made in house
# TEST_METHOD_NOTES: E. coli Endo IV profiling counterscreen;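 also: selectivity counterscreen of candidate APE1 inhibitors against the bacterial endonuclease Endo IV, run in the same assay format as the primary APE1 high-throughput screen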
# Type: biochemical
# STUDY_CONDITIONS: read-out: EndoIV IC50
RECORDED_ENDPOINT: IC50

Check E. coli Endo IV (Escherichia coli, UniProt P0A6C1) data and give IC50 for CC(C(=O)O)N1C(=O)/C(=C/C=C/c2ccco2)SC1=S (stereo not drawn) [MLS000551724] . > 57 µM

Check E. coli Endo IV (Escherichia coli, UniProt P0A6C1) data and give IC50 for CCOC(=O)C1CCN(/C=C2/C(=O)NC(=O)N(Cc3ccco3)C2=O)CC1 [MLS000113273] . > 57 µM

Check E. coli Endo IV (Escherichia coli, UniProt P0A6C1) data and give IC50 for Cc1ccc(NC(=O)CN(C)C(=O)c2cc(-c3ccco3)nc3ccccc23)cc1 [MLS001099510] . > 57 µM

Check E. coli Endo IV (Escherichia coli, UniProt P0A6C1) data and give IC50 for O=C1/C(=C/C=C/c2ccco2)SC(=S)N1NS(=O)(=O)c1ccccc1 [MLS000778639] . > 57 µM

Check E. coli Endo IV (Escherichia coli, UniProt P0A6C1) data and give IC50 for COc1cccc(NC(=O)CN(C)C(=O)c2cc3c(s2)CCC3)c1 [MLS001142077] . > 57 µM

Check E. coli Endo IV (Escherichia coli, UniProt P0A6C1) data and give IC50 for COc1ccccc1N(CC(=O)NCc1ccco1)S(=O)(=O)c1ccc(C)cc1 [MLS001219746] . > 57 µM

Check E. coli Endo IV (Escherichia coli, UniProt P0A6C1) data and give IC50 for O=C(O)c1ccc(-n2cccc2/C=C2/NC(=O)N(c3ccccc3)C2=O)cc1 [MLS000778414] . > 57 µM

Check E. coli Endo IV (Escherichia coli, UniProt P0A6C1) data and give IC50 for O=[N+]([O-])c1ccc(Cl)c(-c2ccc(/C=N/n3cnnc3)o2)c1 [MLS001194618] . > 57 µM

Check E. coli Endo IV (Escherichia coli, UniProt P0A6C1) data and give IC50 for Cc1ccccc1CN1CCN(Cc2cc(=O)c3ccccc3[nH]2)CC1CCO (stereo not drawn) [MLS001000225] . > 57 µM

* * *

# STUDY_SYSTEM: double-stranded 17-mer DNA fragment
# TEST_METHOD_NOTES: ThO (Thiazole Orange) DNA displacement assay;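 also: miniaturized displacement of the intercalating dye from unlabeled duplex DNA, used to flag nonspecific DNA binders, chiefly intercalators, groove binders may be missed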
# Assay type: binding
# STUDY_CONDITIONS: read-out: ThO-DNA binding IC50
Hi there, I'd appreciate the recorded IC50 for every entry that follows.

Give the measured IC50 for CC1CCc2c(sc(NC(=O)/C=C/c3cccs3)c2C(=O)O)C1 (centres unmarked) 36.3 µM

Give the measured IC50 for O=c1c(O)c(Br)ccc2c(Br)c(O)c(O)c(O)c12 1.26 µM

Give the measured IC50 for CCN(CC)c1ccc(C(=C2C=CC(=[N+](CC)Cc3cccc(S(=O)(=O)[O-])c3)C=C2)c2ccc(N(CC)Cc3cccc(S(=O)(=O)O)c3)cc2)cc1 35.5 µM

Give the measured IC50 for O=C(COc1ccccc1[N+](=O)[O-])Nc1cccc(S(=O)(=O)NC2=NCCCCC2)c1 > 57 µM

Give the measured IC50 for O=[N+]([O-])c1ccc(Cl)c(-c2ccc(/C=N/n3cnnc3)o2)c1 > 57 µM

Give the measured IC50 for CCNc1nc(NCC)n2c(SCC(=O)Nc3ccccc3C(F)(F)F)nnc2n1 > 57 µM

Give the measured IC50 for CCN(CC(=O)Nc1c(F)cccc1F)C(=O)/C=C/c1ccc2ccccc2n1 > 57 µM

Give the measured IC50 for O=C(O)CCCN1C(=O)/C(=C/C=C/c2ccco2)SC1=S > 57 µM

Give the measured IC50 for O=C(C[C@@H]1C/C=C\C[C@H](Cc2ccc(F)cc2)C(=O)OC[C@@H](Cc2c[nH]c3ccccc23)NC1=O)NCCO > 57 µM

Give the measured IC50 for O=C(CCCN1C(=O)/C(=C/c2ccco2)SC1=S)Nc1ccccc1C(=O)O > 57 µM

Give the measured IC50 for O=C1NN(c2ccccc2)C(=O)/C1=C/c1ccc(-c2ccc(Cl)c(C(=O)O)c2)o1 > 57 µM

Give the measured IC50 for COC(=O)c1cc(NC(=O)Cc2cccs2)cc(C(=O)OC)c1 > 57 µM

Give the measured IC50 for CCOC(=O)c1ccc2[nH]c(-c3ccc(S(=O)(=O)F)cc3)cc(=O)c2c1 > 57 µM

Give the measured IC50 for N#C/C(=C\c1ccc(O)c(O)c1)C(=O)Nc1cccc2ncccc12 2 µM

Give the measured IC50 for O=C(NC1CC1)c1cc(-c2ccco2)nc2ccccc12 > 57 µM

Give the measured IC50 for COc1ccc(Cl)cc1NC(=O)CCS(=O)(=O)c1ccc(Br)cc1 45.7 µM

Give the measured IC50 for COc1cc(/C=C(\C#N)C(=O)Nc2cccc(C(=O)O)c2)ccc1OCc1ccc(Cl)cc1 > 57 µM

* * *

# STUDY_SYSTEM: APE1 (Homo sapiens)
# Construct: made in house
# TEST_METHOD_NOTES: Fluorescence polarization (FP) displacement assay of APE1 binding to AP-DNA probe;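 also: TAMRA 5′-labeled duplex DNA with THF abasic site (5 nM) and APE1 (20 nM), Mg2+-free buffer, 15 min at room temperature, inhibition seen as lowered polarization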
# STUDY_CONDITIONS: read-out: FP IC50
RECORDED_ENDPOINT: IC50

Give the measured IC50 for Cc1cccc(NC(=O)CNC(=O)CCc2nc3sc4c(c3c(=O)[nH]2)CCCC4)c1C > 57 µM

Give the measured IC50 for O=C(Nc1ccc2nc(-c3ccco3)c(-c3ccco3)nc2c1)N1CCCCCC1 12.6 µM

Give the measured IC50 for CCOC(=O)C1CCCN(C(=O)c2cc(-c3ccco3)nc3ccccc23)C1 (stereo not drawn) > 57 µM

Give the measured IC50 for COc1cc(/C=N/Nc2ccc(C(=O)O)cc2)ccc1O > 57 µM

Give the measured IC50 for NC(=O)c1ccc(NC(=O)COC(=O)c2cc3c(s2)CCC3)cc1 18.2 µM

Give the measured IC50 for O=C(O)C1Nc2ccc(Br)cc2C2C=CCC12 (stereo not drawn) > 57 µM

Give the measured IC50 for C[C@@]1(C(=O)O)NCCc2cc(O)c(O)cc21 > 57 µM

Give the measured IC50 for NS(=O)(=O)c1cccc(NC(=O)c2ccc3nc[nH]c3c2)c1 > 57 µM

Give the measured IC50 for CC(C)C(C(=O)O)N1C(=O)/C(=C/C=C/c2ccco2)SC1=S (stereo not drawn) 11.2 µM

Give the measured IC50 for COc1ccc(NC(=O)c2cc(-c3ccco3)nc3ccccc23)cn1 36.3 µM

Give the measured IC50 for CC1(CC(=O)N/N=C/c2cc([N+](=O)[O-])c(O)cc2O)OCCO1 > 57 µM

Give the measured IC50 for O=C(NC1CC1)c1cc(-c2ccco2)nc2ccccc12 > 57 µM

Give the measured IC50 for O=C(/C=C/c1ccc(O)c(O)c1)O[C@H](Cc1ccc(O)c(O)c1)C(=O)O > 57 µM

Give the measured IC50 for O=C(C[C@@H]1C/C=C\C[C@H](NC(=O)OCC2c3ccccc3-c3ccccc32)C(=O)OC[C@@H]2CCCN2C1=O)NCCO > 57 µM

Give the measured IC50 for CC1CCc2c(sc(NC(=O)/C=C/c3cccs3)c2C(=O)O)C1 (stereo not drawn) > 57 µM

Give the measured IC50 for CCOC(=O)C1CCN(/C=C2/C(=O)NC(=O)N(Cc3ccco3)C2=O)CC1 > 57 µM

Give the measured IC50 for Cc1ccc(NC(=O)C(c2ccccc2)N2CCN(CC(=O)N3CCOCC3)CC2)cc1Cl (stereo not drawn) > 57 µM

Give the measured IC50 for COc1cc(N(C)C)cc(CN(C)CCc2ccc([N+](=O)[O-])cc2)c1O > 57 µM
